# target of assay: serotonin transporter (SERT) (Homo sapiens)
# Construct: expressed in transfected cells; host or cells: CHO cells
# Sequence (P31645 whole entry): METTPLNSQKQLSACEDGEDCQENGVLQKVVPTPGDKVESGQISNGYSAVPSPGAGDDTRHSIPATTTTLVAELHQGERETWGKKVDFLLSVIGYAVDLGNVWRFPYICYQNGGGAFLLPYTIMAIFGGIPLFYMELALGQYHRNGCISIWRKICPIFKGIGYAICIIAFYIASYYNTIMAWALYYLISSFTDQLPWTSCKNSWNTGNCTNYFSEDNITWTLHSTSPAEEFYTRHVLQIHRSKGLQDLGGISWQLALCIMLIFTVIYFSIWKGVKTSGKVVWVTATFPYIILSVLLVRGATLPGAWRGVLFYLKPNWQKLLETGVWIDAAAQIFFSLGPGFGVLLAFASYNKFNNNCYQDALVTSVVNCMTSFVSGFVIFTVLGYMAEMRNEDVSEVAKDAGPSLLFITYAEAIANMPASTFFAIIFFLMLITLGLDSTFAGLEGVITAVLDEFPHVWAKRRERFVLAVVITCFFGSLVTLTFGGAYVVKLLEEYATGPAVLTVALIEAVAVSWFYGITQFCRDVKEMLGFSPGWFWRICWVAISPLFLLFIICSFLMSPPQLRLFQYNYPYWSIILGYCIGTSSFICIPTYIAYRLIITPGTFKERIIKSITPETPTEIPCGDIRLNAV
# test summary: Radioligand binding assay, serotonin transporter (SERT)
# measurement parameters: binding assay, test compound 1×10^−6 M
# key: entry, value: inhibition at 1 µM
Write the quantity with the unit trailing the number.

Worked set:
>>> endpoint_value("O=S(=O)(NCC1CCN(CCOc2cccc3ccccc23)C1)c1ccc2ccccc2c1 (stereo not shown)")
"100%"
>>> endpoint_value("O=S(=O)(NC1CCN(CCCc2noc3cc(F)ccc23)C1)c1cc2ccc(F)cc2s1 (stereo not shown)")
"65%"
>>> endpoint_value("O=S(=O)(N[C@@H]1CCN(CCCc2noc3cc(F)ccc23)C1)c1ccc2cc(Cl)ccc2c1")
"74%"
>>> endpoint_value("O=S(=O)(NC1CCN(CCCc2c[nH]c3ccc(Cl)cc23)C1)c1ccc2ccccc2c1 (stereo not shown)")
"64%"

Lookup: Hello, I am looking for reported inhibition at 1 µM with serotonin transporter (SERT) (Homo sapiens) for O=S(=O)(NCC1CN(CCCc2noc3cc(F)ccc23)C1)c1cccc2ccccc12 . Could you help?
Found: 42%

Lookup: Hello, I am looking for reported inhibition at 1 µM with serotonin transporter (SERT) (Homo sapiens) for COc1cccc(S(=O)(=O)NC2CCN(CCCc3noc4cc(F)ccc34)C2)c1 (stereo not shown) . Could you help?
Found: 52%

Lookup: Hello, I am looking for reported inhibition at 1 µM with serotonin transporter (SERT) (Homo sapiens) for O=S(=O)(NCC1CCN(CCCc2noc3cc(F)ccc23)C1)c1cccc2ccccc12 (stereo not shown) . Could you help?
Found: 36%

Lookup: Hello, I am looking for reported inhibition at 1 µM with serotonin transporter (SERT) (Homo sapiens) for Cn1ccc2c(S(=O)(=O)NCC3CCN(CCCc4noc5cc(F)ccc45)C3)cccc21 (stereo not shown) . Could you help?
Found: -5%

Lookup: Hello, I am looking for reported inhibition at 1 µM with serotonin transporter (SERT) (Homo sapiens) for O=S(=O)(NCC1CN(CCOc2cccc3c2OCCO3)C1)c1cccc2ccccc12 . Could you help?
Found: -2%

Lookup: Hello, I am looking for reported inhibition at 1 µM with serotonin transporter (SERT) (Homo sapiens) for Cc1cccc(S(=O)(=O)NCC2CN(CCCc3noc4cc(F)ccc34)C2)c1 . Could you help?
Found: -4%

Lookup: Hello, I am looking for reported inhibition at 1 µM with serotonin transporter (SERT) (Homo sapiens) for Cn1ccc2cc(S(=O)(=O)NCC3CCN(CCOc4cccc5c4OCCO5)C3)ccc21 (stereo not shown) . Could you help?
Found: 95%

Lookup: Hello, I am looking for reported inhibition at 1 µM with serotonin transporter (SERT) (Homo sapiens) for O=S(=O)(NCC1CN(CCOc2cccc3c2OCCO3)C1)c1cccs1 . Could you help?
Found: 1%

Lookup: Hello, I am looking for reported inhibition at 1 µM with serotonin transporter (SERT) (Homo sapiens) for O=S(=O)(NCC1CCN(CCOc2cccc3c2OCCO3)C1)c1ccc(Cl)cc1 (stereo not shown) . Could you help?
Found: 53%

Lookup: Hello, I am looking for reported inhibition at 1 µM with serotonin transporter (SERT) (Homo sapiens) for COc1cccc(S(=O)(=O)NCC2CN(CCCc3noc4cc(F)ccc34)C2)c1 . Could you help?
Found: 6%

Lookup: Hello, I am looking for reported inhibition at 1 µM with serotonin transporter (SERT) (Homo sapiens) for O=S(=O)(NCC1CN(CCOc2cccc3ccccc23)C1)c1cc2ccc(Cl)cc2s1 . Could you help?
Found: 34%

Lookup: Hello, I am looking for reported inhibition at 1 µM with serotonin transporter (SERT) (Homo sapiens) for O=S(=O)(NC1CCN(CCCc2c[nH]c3ccc(F)cc23)C1)c1ccc2ccccc2c1 (stereo not shown) . Could you help?
Found: 104%

Lookup: Hello, I am looking for reported inhibition at 1 µM with serotonin transporter (SERT) (Homo sapiens) for Cn1ccc2cc(S(=O)(=O)NC3CCN(CCCc4noc5cc(F)ccc45)C3)ccc21 (stereo not shown) . Could you help?
Found: 95%

Lookup: Hello, I am looking for reported inhibition at 1 µM with serotonin transporter (SERT) (Homo sapiens) for O=S(=O)(NCC1CN(CCOc2cccc3ccccc23)C1)c1ccc(F)c(Cl)c1 . Could you help?
Found: 46%

Lookup: Hello, I am looking for reported inhibition at 1 µM with serotonin transporter (SERT) (Homo sapiens) for O=S(=O)(N[C@@H]1CCN(CCCc2noc3cc(F)ccc23)C1)c1cc2ccccc2o1 . Could you help?
Found: 15%

Lookup: Hello, I am looking for reported inhibition at 1 µM with serotonin transporter (SERT) (Homo sapiens) for O=S(=O)(NCC1CCN(CCOc2cccc3c2OCCO3)C1)c1cccc(F)c1 (stereo not shown) . Could you help?
Found: 72%

Lookup: Hello, I am looking for reported inhibition at 1 µM with serotonin transporter (SERT) (Homo sapiens) for O=S(=O)(NC1CCN(CCCc2noc3cc(F)ccc23)CC1)c1ccc2cc(Cl)ccc2c1 . Could you help?
Found: 21%

Lookup: Hello, I am looking for reported inhibition at 1 µM with serotonin transporter (SERT) (Homo sapiens) for O=S(=O)(NCC1CCN(CCOc2cccc3ccccc23)C1)c1ccc(F)c(Cl)c1 (stereo not shown) . Could you help?
Found: 68%

FYI, the data here is from patent US20140135310A1.
